Where do the numbers come from? From paper PMC10143968.

Assay Method Text: In vitro cytotoxicity (alamarBlue)
Type: cell-based, murine
Experimental Context: mouse, J774.A1 murine macrophage cell line (ATCC TIB-67), alamarBlue, 24 h, 37 °C; read-out: 50% cytotoxic concentration (CC50) against murine macrophages J774.A1
Readout Type: CC50 at 24 h (µM)
Lab book: enter the figure in µM, no units written.

Find the measured CC50 at 24 h of CCCCCCCCCCCCCCCCOP(=O)([O-])OCC[N+](C)(C)C [Miltefosine, reference compound] and report it.
128
